# System: MDR1 (P-gp)
# measurementDescription: in vitro
# conditionSummary: dog, MDCK-MDR1, pH 7.4
observationType: Papp B→A at 120 min, 5 μM (×10⁻⁶ cm/s)
// units = ×10⁻⁶ cm/s; emit number, no label

Input CN(C)C(=O)c1cc2cc(O)c(-c3ccc(N(C)[C@@H]4C[C@H]5CC[C@@H]([C@@H]4F)N5C)nn3)cc2o1 (single isomer, unassigned) [Compound 106A] . Output Papp B→A at 120 min, 5 μM: 63.1

Input CN(C)C(=O)c1cc2cc(O)c(-c3ccc(N(C)[C@H]4C[C@@H]5CC[C@H]([C@H]4F)N5C)nn3)cc2o1 (single isomer, unassigned) [Compound 106B] . Output Papp B→A at 120 min, 5 μM: 55.7

Input CCc1cn(-c2ccc(-c3ccc(N(C)[C@H]4C[C@@H]5CC(F)(F)[C@H](C4)N5)nn3)c(O)c2)nn1 (single isomer, unassigned) [Compound 64B] . Output Papp B→A at 120 min, 5 μM: 58.6
